- system: CYP2C9 (Homo sapiens)
- Construct: Pooled human microsomes and selective CYP probe substrates were used; from tissue; host or cells: pooled human liver microsomes
- experiment-description: Time-dependent inhibition of CYP2C9 in human liver microsomes
- Format: in vitro ADME
- assay-setup: pooled human liver microsomes; CYP2C9, 25 μM, human liver microsomes, after 30 minutes incubation; read-out: % Activity NADPH T30
measure-name: activity at 30 min, 25 µM (%)

Sample records with activity at 30 min, 25 µM:
CC(C)N1CC(=O)N(Cc2ccc(Cl)c(F)c2)C2(CN(c3cccnn3)C2)C1=O = 107
Cc1cc(CN2C(=O)CN([C@H]3CC[C@H](C)CC3)C(=O)C23CN(C(N)=O)C3)ccc1F = 41
C[C@H]1CC[C@H](N2CC(=O)N(Cc3ccc(F)c(F)c3)C3(CN(C(N)=O)C3)C2=O)CC1 = 79

A = C[C@H]1CC[C@H](N2CC(=O)N(Cc3ccc(F)c(Cl)c3)C3(CN(C(N)=O)C3)C2=O)CC1
B = CC(C)N1CC(=O)N(Cc2ccc(C(F)(F)F)cc2)C2(CN(c3cccnn3)C2)C1=O
C = C[C@H]1CC[C@H](N2CC(=O)N(Cc3ccc(Cl)cc3)C3(CN(C(N)=O)C3)C2=O)CC1
Rank by activity at 30 min, 25 µM (largest to smallest). Please list the labels in the order you were asked to rank them.
B, A, C

* * *

- system: CYP2D6 (Homo sapiens, UniProt P10635)
- Construct: Pooled human microsomes and selective CYP probe substrates were used; from tissue; host or cells: pooled human liver microsomes
- Sequence (P10635 whole entry): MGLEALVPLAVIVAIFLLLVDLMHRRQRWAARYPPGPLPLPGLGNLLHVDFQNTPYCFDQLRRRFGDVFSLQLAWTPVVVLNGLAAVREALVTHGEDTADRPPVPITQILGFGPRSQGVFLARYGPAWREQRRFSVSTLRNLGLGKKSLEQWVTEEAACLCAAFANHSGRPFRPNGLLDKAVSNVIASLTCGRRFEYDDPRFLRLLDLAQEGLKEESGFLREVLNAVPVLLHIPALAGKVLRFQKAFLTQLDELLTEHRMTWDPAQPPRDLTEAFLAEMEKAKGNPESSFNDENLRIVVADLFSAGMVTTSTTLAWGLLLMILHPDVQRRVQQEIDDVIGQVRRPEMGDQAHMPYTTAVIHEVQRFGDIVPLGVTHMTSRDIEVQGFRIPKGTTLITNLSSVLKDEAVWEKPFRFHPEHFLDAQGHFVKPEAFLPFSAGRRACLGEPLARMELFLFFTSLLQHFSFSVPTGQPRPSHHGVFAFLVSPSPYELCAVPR
- experiment-description: Time-dependent inhibition of CYP2D6 in human liver microsomes
- Type: in vitro ADME
- assay-setup: CYP2D6, 25 μM, fold change
measure-name: (% Activity NADPH T0)/(% Activity NADPH T30)

Sample records with (% Activity NADPH T0)/(% Activity NADPH T30):
C[C@H]1CC[C@H](N2CC(=O)N(Cc3ccc(Cl)cc3)C3(CN(C(N)=O)C3)C2=O)CC1 [Compound 18] = 1.0
C[C@H]1CC[C@H](N2CC(=O)N(Cc3ccc(F)c(F)c3)C3(CN(C=O)C3)C2=O)CC1 [Compound 4] = 1.3
C[C@H]1CC[C@H](N2CC(=O)N(Cc3ccc(F)c(Cl)c3)C3(CN(C(N)=O)C3)C2=O)CC1 [Compound 7] = 0.9
C[C@H]1CC[C@H](N2CC(=O)N(Cc3ccc(F)c(F)c3)C3(CN(C(N)=O)C3)C2=O)CC1 [Compound 5] = 1.1
CC(C)N1CC(=O)N(Cc2ccc(C(F)(F)F)cc2)C2(CN(c3cccnn3)C2)C1=O [Compound 13] = 1.0

A = CC(C)N1CC(=O)N(Cc2ccc(Cl)c(F)c2)C2(CN(c3cccnn3)C2)C1=O [Compound 8]
B = Cc1cc(CN2C(=O)CN([C@H]3CC[C@H](C)CC3)C(=O)C23CN(C(N)=O)C3)ccc1F [Compound 6]
Could you tell me which of these two has the smaller (% Activity NADPH T0)/(% Activity NADPH T30) figure? First: A Second: B // return label of chosen record
A
(A: 0.9, B: 1.3)

* * *

- system: CYP2B6 (Homo sapiens)
- Construct: Pooled human microsomes and selective CYP probe substrates were used; from tissue; host or cells: pooled human liver microsomes
- Sequence (P20813 1-491): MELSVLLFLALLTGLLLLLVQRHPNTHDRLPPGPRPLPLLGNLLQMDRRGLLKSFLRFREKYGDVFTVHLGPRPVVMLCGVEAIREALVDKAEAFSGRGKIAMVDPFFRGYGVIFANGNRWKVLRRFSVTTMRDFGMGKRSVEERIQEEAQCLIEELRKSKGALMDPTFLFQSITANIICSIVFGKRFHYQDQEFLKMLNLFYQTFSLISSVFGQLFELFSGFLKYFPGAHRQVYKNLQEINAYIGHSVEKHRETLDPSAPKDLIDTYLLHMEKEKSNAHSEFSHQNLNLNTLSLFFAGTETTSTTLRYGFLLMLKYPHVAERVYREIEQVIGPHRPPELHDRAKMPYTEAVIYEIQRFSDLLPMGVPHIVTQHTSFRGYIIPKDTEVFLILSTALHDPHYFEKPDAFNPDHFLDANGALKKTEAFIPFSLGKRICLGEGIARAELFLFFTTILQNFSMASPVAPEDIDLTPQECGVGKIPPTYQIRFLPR
- experiment-description: Time-dependent inhibition of CYP2B6 in human liver microsomes
- Format: in vitro ADME
- assay-setup: CYP2B6, 25 μM, fold change
measure-name: (% Activity NADPH T0)/(% Activity NADPH T30)

C[C@H]1CC[C@H](N2CC(=O)N(Cc3ccc(F)c(F)c3)C3(CN(C(N)=O)C3)C2=O)CC1 = 1.0
Cc1cc(CN2C(=O)CN([C@H]3CC[C@H](C)CC3)C(=O)C23CN(C(N)=O)C3)ccc1F = 1.1
CC(C)N1CC(=O)N(Cc2ccc(C(F)(F)F)cc2)C2(CN(c3cccnn3)C2)C1=O = 0.9
C[C@H]1CC[C@H](N2CC(=O)N(Cc3ccc(Cl)cc3)C3(CN(C(N)=O)C3)C2=O)CC1 = 0.8
CC(C)N1CC(=O)N(Cc2ccc(Cl)c(F)c2)C2(CN(c3cccnn3)C2)C1=O = 0.9
C[C@H]1CC[C@H](N2CC(=O)N(Cc3ccc(F)c(Cl)c3)C3(CN(C(N)=O)C3)C2=O)CC1 = 0.9
C[C@H]1CC[C@H](N2CC(=O)N(Cc3ccc(F)c(F)c3)C3(CN(C=O)C3)C2=O)CC1 = 1.1

* * *

- system: CYP2C9 (Homo sapiens, UniProt P11712)
- Construct: Pooled human microsomes and selective CYP probe substrates were used; from tissue; host or cells: pooled human liver microsomes
- Sequence (P11712 whole entry): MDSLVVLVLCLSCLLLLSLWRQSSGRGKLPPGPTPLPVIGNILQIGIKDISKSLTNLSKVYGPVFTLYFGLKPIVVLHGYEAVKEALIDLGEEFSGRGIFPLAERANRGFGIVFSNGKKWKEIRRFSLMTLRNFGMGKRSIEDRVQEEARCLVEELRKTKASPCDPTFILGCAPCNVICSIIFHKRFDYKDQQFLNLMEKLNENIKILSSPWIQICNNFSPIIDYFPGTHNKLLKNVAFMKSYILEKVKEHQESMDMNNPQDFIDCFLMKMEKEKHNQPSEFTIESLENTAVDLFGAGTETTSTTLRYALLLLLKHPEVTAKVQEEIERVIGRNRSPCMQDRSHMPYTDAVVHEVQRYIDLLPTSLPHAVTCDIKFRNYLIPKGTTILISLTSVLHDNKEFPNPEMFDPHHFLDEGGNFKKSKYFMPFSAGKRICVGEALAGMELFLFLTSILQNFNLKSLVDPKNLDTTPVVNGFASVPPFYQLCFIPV
- experiment-description: Time-dependent inhibition of CYP2C9 in human liver microsomes
- Type: in vitro ADME
- assay-setup: CYP2C9, 50 μM, fold change
measure-name: (% Activity NADPH T0)/(% Activity NADPH T30)

Cc1cc(CN2C(=O)CN([C@H]3CC[C@H](C)CC3)C(=O)C23CN(C(N)=O)C3)ccc1F = 1.0
C[C@H]1CC[C@H](N2CC(=O)N(Cc3ccc(F)c(F)c3)C3(CN(C(N)=O)C3)C2=O)CC1 = 1.0
CC(C)N1CC(=O)N(Cc2ccc(Cl)c(F)c2)C2(CN(c3cccnn3)C2)C1=O = 1.0
CC(C)N1CC(=O)N(Cc2ccc(C(F)(F)F)cc2)C2(CN(c3cccnn3)C2)C1=O = 1.0
C[C@H]1CC[C@H](N2CC(=O)N(Cc3ccc(Cl)cc3)C3(CN(C(N)=O)C3)C2=O)CC1 = 1.2

A = C[C@H]1CC[C@H](N2CC(=O)N(Cc3ccc(F)c(Cl)c3)C3(CN(C(N)=O)C3)C2=O)CC1
B = C[C@H]1CC[C@H](N2CC(=O)N(Cc3ccc(F)c(F)c3)C3(CN(C=O)C3)C2=O)CC1
Given A and B , report the one with the higher recorded (% Activity NADPH T0)/(% Activity NADPH T30). // return label of chosen record
A
(A: 1.4, B: 0.9)

* * *

- experiment-description: Monkey cassette dosing pharmacokinetics
- Assay type: in vivo
- assay-setup: male, plasma, IV
measure-name: clearance (mL/min/kg)

Sample records with clearance:
C[C@H]1CC[C@H](N2CC(=O)N(Cc3ccc(F)c(F)c3)C3(CN(C(N)=O)C3)C2=O)CC1 = 19
CC[C@H](C)N1CC(=O)N(Cc2ccc(F)c(F)c2)C2(CN(c3cccnn3)C2)C1=O = 17.1
Cc1cc(CN2C(=O)CN([C@H]3CC[C@H](C)CC3)C(=O)C23CN(C(N)=O)C3)ccc1F = 12.3
CC(C)N1CC(=O)N(Cc2ccc(Cl)c(F)c2)C2(CN(c3cccnn3)C2)C1=O = 20.2

A = C[C@H]1CC[C@H](N2CC(=O)N(Cc3ccc(F)c(Cl)c3)C3(CN(C(N)=O)C3)C2=O)CC1
B = CC(C)N1CC(=O)N(Cc2ccc(F)c(Cl)c2)C2(CN(c3cccnn3)C2)C1=O
Given A and B , report the one with the higher recorded clearance. // return label of chosen record
B
(B: 15.2 mL/min/kg, A: 10.2 mL/min/kg)

* * *

- experiment-description: Monkey cassette dosing pharmacokinetics
- Type: in vivo
- assay-setup: IV
measure-name: t l/2 (h)

CC[C@H]1CC[C@H](N2CC(=O)N(Cc3ccc(F)c(F)c3)C3(CN(C(N)=O)C3)C2=O)CC1 [Compound 11] = 3.03

A = CC(C)N1CC(=O)N(Cc2ccc(Cl)c(F)c2)C2(CN(c3cccnn3)C2)C1=O [Compound 8]
B = C[C@H]1CC[C@H](N2CC(=O)N(Cc3ccc(F)c(Cl)c3)C3(CN(C(N)=O)C3)C2=O)CC1 [Compound 7]
C = CC(C)N1CC(=O)N(Cc2ccc(C(F)(F)F)cc2)C2(CN(c3cccnn3)C2)C1=O [Compound 13]
Rank by t l/2 (largest to smallest). Please list the labels in the order you were asked to rank them.
B, A, C
(B: 12.5 h, A: 3.72 h, C: 1.83 h)
